System: E. coli screening strain CM400
Type: cell-based, Escherichia coli
Set-up: unit not given here
Test settings: Table 13, MHB medium
Numbered stars: 1 amine (or outer) side, 2 acyl side, 3 side chain; on linkers, the order of the positions; unused ones are H or OH. Bridge positions count the residues as written; N and C are the ends. Square brackets hold non-standard residues; d marks the D form. Peptide text beside a SMILES is read from it. I, II: the chains in the order shown. Actinocin(9to1) = Cc1c2oc3c(C)ccc(C(=O)[*:1])c3nc-2c(C(=O)[*:2])c(N)c1=O; NMeV = CN[C@H](C(=O)O)C(C)C; Sar = CNCC(=O)O
Reported endpoint: Minimal inhibitory concentrations (MIC90) CM400

[[record]]
compound = "CO[C@H]1/C=C/O[C@@]2(C)Oc3c(C)c(O)c4c(O)c(cc(O)c4c3C2=O)NC(=O)/C(C)=C\\C=C\\[C@H](C)[C@H](O)[C@@H](C)[C@@H](O)[C@@H](C)[C@H](OC(C)=O)[C@@H]1C [Rifamycin]"
bound_operator = ">"
test_value = 64

[[record]]
compound = "COc1cccc2c1C(=O)c1c(O)c3c(c(O)c1C2=O)C[C@@](O)(C(C)=O)C[C@@H]3O[C@H]1C[C@H](N)[C@H](O)[C@H](C)O1 [Daunorubicin]"
bound_operator = ">"
test_value = 256

[[record]]
compound = "CO[C@H]1[C@H](OC(=O)c2ccc(C)[nH]2)[C@H](O)[C@@H](Oc2ccc3c(O)c(NC(=O)c4c[nH]c(C(=O)Nc5c(O)c6ccc(O[C@H]7OC(C)(C)[C@@H](OC)[C@H](OC(=O)c8ccc(C)[nH]8)[C@@H]7O)c(C)c6oc5=O)c4C)c(=O)oc3c2C)OC1(C)C [Coumermycin A1]"
bound_operator = "="
test_value = 64

[[record]]
compound = "C[C@H]1[C@H](NC(=O)/C(=N\\OC(C)(C)C(=O)O)c2csc(N)n2)C(=O)N1S(=O)(=O)O [Aztreonam]"
bound_operator = "<"
test_value = 0.06

[[record]]
compound = "Cc1c2oc3c(C)ccc(C(=O)N[C@@H]4C(=O)N[C@H](C(C)C)C(=O)N5CCC[C@H]5C(=O)N(C)CC(=O)N(C)[C@@H](C(C)C)C(=O)O[C@@H]4C)c3nc-2c(C(=O)N[C@@H]2C(=O)N[C@H](C(C)C)C(=O)N3CCC[C@H]3C(=O)N(C)CC(=O)N(C)[C@@H](C(C)C)C(=O)O[C@@H]2C)c(N)c1=O [Actinomycin D] (I: T[dV]P[Sar][NMeV] / II: T[dV]P[Sar][NMeV]; ester I:1-I:C, II:1-II:C; linker I:N-II:N via Actinocin(9to1))"
bound_operator = "="
test_value = 256

